Biological target: T1, hIL-4Rα on cells (human, UniProt P24394 26-825)
T1 sequence: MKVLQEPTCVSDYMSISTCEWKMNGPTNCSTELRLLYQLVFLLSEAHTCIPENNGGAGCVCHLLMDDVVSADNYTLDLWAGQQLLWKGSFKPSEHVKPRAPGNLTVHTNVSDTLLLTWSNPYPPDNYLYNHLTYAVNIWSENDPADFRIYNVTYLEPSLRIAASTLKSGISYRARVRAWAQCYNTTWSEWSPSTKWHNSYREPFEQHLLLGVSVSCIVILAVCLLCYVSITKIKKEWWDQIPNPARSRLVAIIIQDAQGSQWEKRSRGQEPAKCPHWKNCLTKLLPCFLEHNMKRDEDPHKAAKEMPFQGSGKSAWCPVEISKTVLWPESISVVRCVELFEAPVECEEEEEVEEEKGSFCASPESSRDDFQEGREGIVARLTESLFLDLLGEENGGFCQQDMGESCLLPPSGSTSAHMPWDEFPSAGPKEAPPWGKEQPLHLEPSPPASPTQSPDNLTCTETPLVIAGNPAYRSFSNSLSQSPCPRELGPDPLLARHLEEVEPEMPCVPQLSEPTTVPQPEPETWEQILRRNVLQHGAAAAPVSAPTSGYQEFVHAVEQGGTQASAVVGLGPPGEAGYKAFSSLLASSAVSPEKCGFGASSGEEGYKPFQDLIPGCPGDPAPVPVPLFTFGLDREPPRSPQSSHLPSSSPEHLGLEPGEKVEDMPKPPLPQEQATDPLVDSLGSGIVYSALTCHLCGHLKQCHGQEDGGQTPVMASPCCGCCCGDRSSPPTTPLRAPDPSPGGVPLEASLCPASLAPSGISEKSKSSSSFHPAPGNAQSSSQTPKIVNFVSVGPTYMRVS
Test: cell-based or functional assay
METRIC: Relative Inhibition of IL-4 induced TF-1 Proliferation IC50

Take a look at these entries with their results.
Construct 28 (mAb436) (antibody, IgG4, V domains shown, VH/VL only) VH: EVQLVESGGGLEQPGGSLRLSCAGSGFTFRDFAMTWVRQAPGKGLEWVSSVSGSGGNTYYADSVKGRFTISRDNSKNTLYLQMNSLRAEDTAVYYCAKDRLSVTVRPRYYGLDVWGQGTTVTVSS VL: DIVMTQSPLSLPVTPGEPASISCTSSQSLLYSIGYNYVDWYLQKSGQSPQLLIYLGNKRASGVPDRFSGSGSGTDFTLKISRVEAEDVGFYYCMQSLQTPYTFGQGTKLEIK
1.19 relative to dupilumab
Construct 42 (mAb481) (antibody, IgG4, V domains shown, VH/VL only) VH: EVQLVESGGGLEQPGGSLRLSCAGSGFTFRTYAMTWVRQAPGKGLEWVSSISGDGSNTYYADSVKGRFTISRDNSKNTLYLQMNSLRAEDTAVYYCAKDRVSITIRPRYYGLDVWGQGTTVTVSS VL: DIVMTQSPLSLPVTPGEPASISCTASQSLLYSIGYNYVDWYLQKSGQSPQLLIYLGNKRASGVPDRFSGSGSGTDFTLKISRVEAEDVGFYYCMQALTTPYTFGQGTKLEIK
1.19 relative to dupilumab

Q: Note Relative Inhibition of IL-4 induced TF-1 Proliferation IC50 for the binder shown: Construct 43 (mAb482) (antibody, IgG4, V domains shown, VH/VL only) VH: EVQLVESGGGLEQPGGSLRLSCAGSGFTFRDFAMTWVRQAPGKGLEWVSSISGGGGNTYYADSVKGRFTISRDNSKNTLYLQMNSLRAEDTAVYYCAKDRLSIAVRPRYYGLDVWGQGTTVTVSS VL: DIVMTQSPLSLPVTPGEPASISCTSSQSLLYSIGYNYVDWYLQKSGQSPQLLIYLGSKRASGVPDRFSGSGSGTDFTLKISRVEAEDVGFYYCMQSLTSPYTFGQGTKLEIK
Ans: 1.13 relative to dupilumab

Q: Note Relative Inhibition of IL-4 induced TF-1 Proliferation IC50 for the binder shown: Construct 24 (mAb432) (antibody, IgG4, V domains shown, VH/VL only) VH: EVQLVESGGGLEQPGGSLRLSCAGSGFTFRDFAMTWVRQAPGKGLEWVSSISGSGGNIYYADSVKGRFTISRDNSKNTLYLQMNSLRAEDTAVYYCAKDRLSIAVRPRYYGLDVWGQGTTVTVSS VL: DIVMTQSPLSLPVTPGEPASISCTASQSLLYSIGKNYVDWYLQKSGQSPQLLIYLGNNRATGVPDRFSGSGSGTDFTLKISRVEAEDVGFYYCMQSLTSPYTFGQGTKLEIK
Ans: 1.03 relative to dupilumab

Q: Note Relative Inhibition of IL-4 induced TF-1 Proliferation IC50 for the binder shown: Construct 31 (mAb443) (antibody, IgG4, V domains shown, VH/VL only) VH: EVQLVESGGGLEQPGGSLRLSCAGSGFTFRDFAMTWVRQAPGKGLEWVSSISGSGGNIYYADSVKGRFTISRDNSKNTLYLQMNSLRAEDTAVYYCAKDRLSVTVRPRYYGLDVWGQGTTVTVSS VL: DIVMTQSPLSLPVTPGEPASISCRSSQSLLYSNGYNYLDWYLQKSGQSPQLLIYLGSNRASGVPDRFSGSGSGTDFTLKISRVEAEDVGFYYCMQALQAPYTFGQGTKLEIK
Ans: 1.25 relative to dupilumab
